Target: tubulin/RB3-stathmin-like-domain (RB3-SLD-tdm) complex (Sus scrofa, UniProt P02550+P02554)
Construct: purchased Cytoskeleton, Inc. T240; host or cells: RB3-SLD was made in house in E. coli
Assay: Tubulin Peptide-Binding Site Competition Assay (fluorescence polarization)
Parameters: species or system Porcine
Details: FP competition with BODIPY-labeled vinca peptide probe; read after five hours at 22° C.; read-out: Tubulin Peptide-Binding Site Competition Assay IC50
Reported IC50 is given for each of the following compounds.
The response must be a number in nM with no trailing unit.

Worked cases, IC50 given:
>  <COMPOUND>
CCOC(=O)c1ncoc1[C@H](Cc1ccccc1)NC(=O)c1csc([C@@H](C[C@H](C(C)C)N(C)C(=O)[C@@H](NC(=O)[C@@]2(C)CCCN2C)[C@@H](C)CC)OC(C)=O)n1 [#B75]

>  <ASSAY SYSTEM>
tubulin/RB3-stathmin-like-domain (RB3-SLD-tdm) complex (Sus scrofa, UniProt P02550+P02554)

>  <READING UNIT>
nM

>  <RESULT>
25.8

$$$$
>  <COMPOUND>
CC[C@H](C)[C@H](NC(=O)[C@@]1(C)CCCN1C)C(=O)N(C)[C@H](C[C@@H](OC(C)=O)c1nc(C(=O)NC(Cc2ccccc2)c2ccccc2)cs1)C(C)C (stereo partly shown) [#B74]

>  <ASSAY SYSTEM>
tubulin/RB3-stathmin-like-domain (RB3-SLD-tdm) complex (Sus scrofa, UniProt P02550+P02554)

>  <READING UNIT>
nM

>  <RESULT>
89.3

$$$$

Given the entry CC[C@H](C)[C@H](NC(=O)[C@@]1(C)CCCN1C)C(=O)N(C)[C@H](C[C@@H](OC(C)=O)c1nc(C(=O)NC(CO)Cc2ccccc2)cs1)C(C)C (stereo partly shown) [#B50] , report its measured IC50. 8.6

What does the data say about its IC50? Entry: CC[C@H](C)[C@H](NC(=O)[C@@]1(C)CCCN1C)C(=O)N(C)[C@H](C[C@@H](OC(C)=O)c1nc(C(=O)N[C@@H](Cc2ccccc2)C(O)c2nccs2)cs1)C(C)C (stereo partly shown) [#B62] 4.7
